Tested on: E. coli W3110RL
Experiment: microbe, parasite or virus in culture
Type: cell-based
Conditions: E. coli with lpxC of R. leguminosarum; 22 hours at 37° C., MTT

SMILES_NOTATION: Nc1ccc(C#CC#Cc2ccc(C(=O)N[C@@H](CC(=O)O)C(=O)NO)cc2)cc1
MIC E. coli W3110RL: E (>100 μg/mL)
--
SMILES_NOTATION: Nc1ccc(C#CC#Cc2ccc(C(=O)N3CCC[C@H]3C(=O)NO)cc2)cc1
MIC E. coli W3110RL: E (>100 μg/mL)

====

Test system: Acinetobacter Baumannii antibiotic susceptible strain (Sus. A.b. Isolate)
Assay: Disk diffusion assay, antibiotic susceptible strain
Assay type: cell-based
Conditions: Acinetobacter baumannii; 2 μg of compound per disc, disc 6 mm in diameter; read-out: diameter of the growth inhibition, Sus. A.b. Isolate

SMILES_NOTATION: CC(C)(O)[C@H](NC(=O)c1ccc(C#CC#Cc2ccc(N)cc2)cc1)C(=O)NO
zone of inhibition at 2 µg/disc: 11 to 15 mm
--
SMILES_NOTATION: C[C@@H](O)[C@H]1C(=O)N2C(C(=O)O)=C(SCCN=CN)C[C@H]12
zone of inhibition at 2 µg/disc: ≥ 16 mm
--
SMILES_NOTATION: CN(C)[C@@H]1C(O)=C(C(N)=O)C(=O)[C@@]2(O)C(O)=C3C(=O)c4c(O)cccc4[C@@](C)(O)[C@H]3C[C@@H]12
zone of inhibition at 2 µg/disc: 6 to 10 mm
--
SMILES_NOTATION: O=C(N[C@H](CO)[C@H](O)c1ccc([N+](=O)[O-])cc1)C(Cl)Cl
zone of inhibition at 2 µg/disc: 6 to 10 mm
--
SMILES_NOTATION: C[C@@](O)(C(F)F)[C@H](NC(=O)c1ccc(C#CC#Cc2ccccc2N)cc1)C(=O)NO
zone of inhibition at 2 µg/disc: 6 to 10 mm
--
SMILES_NOTATION: O=C(O)c1cn(C2CC2)c2cc(N3CCNCC3)c(F)cc2c1=O
zone of inhibition at 2 µg/disc: ≥ 16 mm
--
SMILES_NOTATION: C[C@@](O)(C(F)F)[C@H](NC(=O)c1ccc(C#CC#Cc2ccc(N)cc2)cc1)C(=O)NO
zone of inhibition at 2 µg/disc: 11 to 15 mm
--
SMILES_NOTATION: CC(C)(N)[C@H](NC(=O)c1ccc(C#CC#Cc2ccc(N)cc2)cc1)C(=O)NO
zone of inhibition at 2 µg/disc: 6 to 10 mm
